Activity (U/mg) values, listed per item
- System: homoserine transsuccinylase
- assay-protocol: Homoserine transsuccinylase activity test (Lee et al.), 5,5'-dithiobis(2-nitrobenzoic acid), absorption at 412 nm, with and without SAM
- Format: biochemical, E. coli
- details: cell extract; 3 mM homoserine, 0.3 mM succinyl-CoA, 50 mM potassium phosphate buffer pH 7.5

| molecule | Activity (U/mg) |
| --- | --- |
| pSLmetAH: MetA variant with His instead of Asp at position 101 (protein, UniProt P07623 2-309, looked up, variant D101H) Homoserine …: PIRVPDELPAVNFLREENVFVMTTSRASGQEIRPLKVLILNLMPKKIETENQFLRLLSNSPLQVDIQLLRIDSRESRNTPAEHLNNFYCNFEDIQDQNFHGLIVTGAPLGLVEFNDVAYWPQIKQVLEWSKDHVTSTLFVCWAVQAALNILYGIPKQTRTEKLSGVYEHHILHPHALLTRGFDDSFLAPHSRYADFPAALIRDYTDLEILAETEEGDAYLFASKDKRIAFVTGHPEYDAQTLAQEFFRDVEAGLDPDVPYNYFPHNDPQNTPRASWRSHGNLLFTNWLNYYVYQITPYDLRHMNPTLD | 0.27 U/mg |
| pKP446: MetA variant with Cys instead of Tyr at position 294 (protein, UniProt P07623 2-309, looked up, variant Y294C) Homoserine …: PIRVPDELPAVNFLREENVFVMTTSRASGQEIRPLKVLILNLMPKKIETENQFLRLLSNSPLQVDIQLLRIDSRESRNTPAEHLNNFYCNFEDIQDQNFDGLIVTGAPLGLVEFNDVAYWPQIKQVLEWSKDHVTSTLFVCWAVQAALNILYGIPKQTRTEKLSGVYEHHILHPHALLTRGFDDSFLAPHSRYADFPAALIRDYTDLEILAETEEGDAYLFASKDKRIAFVTGHPEYDAQTLAQEFFRDVEAGLDPDVPYNYFPHNDPQNTPRASWRSHGNLLFTNWLNYYVCQITPYDLRHMNPTLD | 0.49 U/mg |
| pSLmetAS: MetA variant with Ser instead of Asp at position 101 (protein, UniProt P07623 2-309, looked up, variant D101S) Homoserine …: PIRVPDELPAVNFLREENVFVMTTSRASGQEIRPLKVLILNLMPKKIETENQFLRLLSNSPLQVDIQLLRIDSRESRNTPAEHLNNFYCNFEDIQDQNFSGLIVTGAPLGLVEFNDVAYWPQIKQVLEWSKDHVTSTLFVCWAVQAALNILYGIPKQTRTEKLSGVYEHHILHPHALLTRGFDDSFLAPHSRYADFPAALIRDYTDLEILAETEEGDAYLFASKDKRIAFVTGHPEYDAQTLAQEFFRDVEAGLDPDVPYNYFPHNDPQNTPRASWRSHGNLLFTNWLNYYVYQITPYDLRHMNPTLD | 0.15 U/mg |
| pSLmetAY: MetA variant with Tyr instead of Asp at position 101 (protein, UniProt P07623 2-309, looked up, variant D101Y) Homoserine …: PIRVPDELPAVNFLREENVFVMTTSRASGQEIRPLKVLILNLMPKKIETENQFLRLLSNSPLQVDIQLLRIDSRESRNTPAEHLNNFYCNFEDIQDQNFYGLIVTGAPLGLVEFNDVAYWPQIKQVLEWSKDHVTSTLFVCWAVQAALNILYGIPKQTRTEKLSGVYEHHILHPHALLTRGFDDSFLAPHSRYADFPAALIRDYTDLEILAETEEGDAYLFASKDKRIAFVTGHPEYDAQTLAQEFFRDVEAGLDPDVPYNYFPHNDPQNTPRASWRSHGNLLFTNWLNYYVYQITPYDLRHMNPTLD | 0.61 U/mg |
| pSLmetAN: MetA variant with Asn instead of Asp at position 101 (protein, UniProt P07623 2-309, looked up, variant D101N) Homoserine …: PIRVPDELPAVNFLREENVFVMTTSRASGQEIRPLKVLILNLMPKKIETENQFLRLLSNSPLQVDIQLLRIDSRESRNTPAEHLNNFYCNFEDIQDQNFNGLIVTGAPLGLVEFNDVAYWPQIKQVLEWSKDHVTSTLFVCWAVQAALNILYGIPKQTRTEKLSGVYEHHILHPHALLTRGFDDSFLAPHSRYADFPAALIRDYTDLEILAETEEGDAYLFASKDKRIAFVTGHPEYDAQTLAQEFFRDVEAGLDPDVPYNYFPHNDPQNTPRASWRSHGNLLFTNWLNYYVYQITPYDLRHMNPTLD | 0.30 U/mg |
| pSLmetA*P: MetA variant with Pro instead of Tyr at position 294 (protein, UniProt P07623 2-309, looked up, variant Y294P) Homoserine …: PIRVPDELPAVNFLREENVFVMTTSRASGQEIRPLKVLILNLMPKKIETENQFLRLLSNSPLQVDIQLLRIDSRESRNTPAEHLNNFYCNFEDIQDQNFDGLIVTGAPLGLVEFNDVAYWPQIKQVLEWSKDHVTSTLFVCWAVQAALNILYGIPKQTRTEKLSGVYEHHILHPHALLTRGFDDSFLAPHSRYADFPAALIRDYTDLEILAETEEGDAYLFASKDKRIAFVTGHPEYDAQTLAQEFFRDVEAGLDPDVPYNYFPHNDPQNTPRASWRSHGNLLFTNWLNYYVPQITPYDLRHMNPTLD | 0.15 U/mg |
| pSLmetA*L: MetA variant with Leu instead of Tyr at position 294 (protein, UniProt P07623 2-309, looked up, variant Y294L) Homoserine …: PIRVPDELPAVNFLREENVFVMTTSRASGQEIRPLKVLILNLMPKKIETENQFLRLLSNSPLQVDIQLLRIDSRESRNTPAEHLNNFYCNFEDIQDQNFDGLIVTGAPLGLVEFNDVAYWPQIKQVLEWSKDHVTSTLFVCWAVQAALNILYGIPKQTRTEKLSGVYEHHILHPHALLTRGFDDSFLAPHSRYADFPAALIRDYTDLEILAETEEGDAYLFASKDKRIAFVTGHPEYDAQTLAQEFFRDVEAGLDPDVPYNYFPHNDPQNTPRASWRSHGNLLFTNWLNYYVLQITPYDLRHMNPTLD | 0.29 U/mg |
